Measured values drawn from patent US8513423B2 for this set.

# target-under-test: MGL (Rattus norvegicus)
# Construct: one g rat brain was homogenized; from tissue; host or cells: rat brain homogenate
# Sequence (Q8R431 whole entry): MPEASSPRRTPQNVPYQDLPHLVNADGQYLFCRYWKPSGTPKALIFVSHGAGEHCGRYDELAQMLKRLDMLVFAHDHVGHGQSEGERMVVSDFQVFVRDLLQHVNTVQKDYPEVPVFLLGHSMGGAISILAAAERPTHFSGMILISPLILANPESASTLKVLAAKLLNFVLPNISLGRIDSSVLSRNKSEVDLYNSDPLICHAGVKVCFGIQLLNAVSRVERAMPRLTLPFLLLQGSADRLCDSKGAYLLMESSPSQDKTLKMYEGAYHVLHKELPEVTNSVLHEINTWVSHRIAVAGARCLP
# assay-procedure: 2-AG accumulation assay in rat brain homogenate
# Assay type: biochemical
# details: compound @1 μM, read-out: Rat Brain 2AG % VehCntrl (%) @1 μM
recorded-metric: 2-AG accumulation, percent of vehicle control at 1 µM (%)
Write it as a number; the unit % goes unstated.

Here is how some compounds turned out for 2-AG accumulation, percent of vehicle control at 1 µM.
[
  {
    "compound-structure": "O=C(c1ccc(Cc2cccc(C(F)(F)F)c2)cc1)N1CC(C2CCN(C(=O)c3cscn3)CC2)C1",
    "quantitative-readout": 335
  },
  {
    "compound-structure": "O=C(c1ccc[nH]1)N1CC(C2CCN(C(=O)c3sc4cc(C(F)(F)F)ccc4c3Cl)CC2)C1",
    "quantitative-readout": 552
  }
]

For MGL (Rattus norvegicus), give 2-AG accumulation, percent of vehicle control at 1 µM of the listed compound: "O=C(c1ccc2nc(-c3ccccc3)oc2c1)N1CC(C2CCN(C(=O)c3nccs3)CC2)C1"
777

Using MGL (Rattus norvegicus) as the test system, report measured 2-AG accumulation, percent of vehicle control at 1 µM of "O=C(c1ccc(-c2ccccc2)cc1)N1CC(C2CCN(C(=O)c3ccns3)CC2)C1" .
135

Fetch value of 2-AG accumulation, percent of vehicle control at 1 µM on MGL (Rattus norvegicus) for "Cc1c(C(=O)N2CC(C3CCN(C(=O)c4ccc[nH]4)CC3)C2)sc2cc(C(F)(F)F)ccc12" .
303

Recall the reported 2-AG accumulation, percent of vehicle control at 1 µM of "O=C(c1cscn1)N1CCC(C2CN(C(=O)c3sc4cc(F)ccc4c3Cl)C2)CC1" on MGL (Rattus norvegicus) and write it down.
185

Give MGL (Rattus norvegicus) 2-AG accumulation, percent of vehicle control at 1 µM for the following compound: "O=C(c1ccc(-c2ccc(C(F)(F)F)s2)cc1)N1CCC(C2CN(C(=O)c3cscn3)C2)CC1"
733
